Taken from ChEMBL document CHEMBL3988442.

Test system: Trypanosoma cruzi
experiment.description: Trypanosoma cruzi phosphomannomutase and mannose-1-phosphate guanylyltransferase assay
Type: functional
Design: scale not given: direction of the effect not stated beside the values
measurement.parameters: 10 µM
quantity: Percent Effect (%)
Response body: numeric value in %, unit text excluded.

Specify Percent Effect for Fc1cnc(N2CCOC3(CCN(Cc4ccsc4)CC3)C2)nc1 , system Trypanosoma cruzi.
-6.52

Specify Percent Effect for COC[C@@]12CCO[C@@H]1CCN(C(=O)COc1ccccc1OC)C2 , system Trypanosoma cruzi.
-4.76

Specify Percent Effect for CCc1[nH]ncc1C(=O)N1CCCN(Cc2cnn(C(C)C)c2)CC1 , system Trypanosoma cruzi.
4.62

Specify Percent Effect for Clc1ccc(OCCCN2CCN(c3cnccn3)CC2)cc1 , system Trypanosoma cruzi.
-0.933

Specify Percent Effect for Cc1nn(C)c(N2CCOCC2)c1CNC1CCc2cc(F)ccc21 (centres undefined) , system Trypanosoma cruzi.
-2.8

Specify Percent Effect for Cc1nccn1CCC1CCCCN1Cc1ccc(N(C)C)nc1 (centres undefined) , system Trypanosoma cruzi.
-6.91

Could you now look at the following compound, please?
Specify Percent Effect for Cc1cc2nc(SCC(=O)N3CCCC3)n(C(C)C)c(=O)c2[nH]1 , system Trypanosoma cruzi.
2.63
